Tested on: lambsquarters (Chenopodium album)
EXPERIMENTAL_PROTOCOL: Test D pre-/postemergence plant response
Type: in vivo
MEASUREMENT_SETUP: Chenopodium album, post-emergence; Postemergence, 125 g ai/ha; scale 0 to 100, 0 no effect, 100 complete control; read-out: Plant response rating, Lambsquarters
PROPERTY_LABEL: pest or weed control at 125 g/ha (%)
Note: unit % is implicit; provide only the numeric part.

Param request: pest or weed control at 125 g/ha | system lambsquarters (Chenopodium album) | item FC(F)c1cc(-c2ccccc2Oc2ncc(Br)cn2)no1 [Compound 62]
100

Report its pest or weed control at 125 g/ha with lambsquarters (Chenopodium album) as the test system: FC(F)c1cc(-c2ccccc2Oc2ncc(Cl)cn2)on1 [Compound 53]
100

Write down measured pest or weed control at 125 g/ha (lambsquarters (Chenopodium album)) for this molecule. Fc1cccc(Oc2ncc(Cl)cn2)c1-c1cc(C(F)(F)F)on1 [Compound 168]
90

Tell me pest or weed control at 125 g/ha of FC(F)(F)c1cc(-c2ccccc2Oc2ncc(Cl)cn2)on1 [Compound 63] when tested on lambsquarters (Chenopodium album).
90

Tell me pest or weed control at 125 g/ha of Fc1cccc(Oc2ncc(Br)cn2)c1-c1cc(C(F)F)no1 [Compound 145] when tested on lambsquarters (Chenopodium album).
95

====

System: giant foxtail (Setaria faberii)
EXPERIMENTAL_PROTOCOL: Test B pre-/postemergence plant response
Assay type: in vivo
MEASUREMENT_SETUP: Setaria faberi, post-emergence, 240 h; 125 g ai/ha, postemergence; 0 to 100 scale, 0 no effect, 100 complete control; read-out: Plant response rating, Foxtail, Giant
Source text: […]
For each of the compounds below, state its pest or weed control at 125 g/ha.

Recall and state the measured pest or weed control at 125 g/ha for FC(F)(F)c1nccc(-c2ccccc2Oc2ncc(Br)cn2)n1 [Compound 21] .
0%

Provide one value: measured pest or weed control at 125 g/ha of FCc1cc(-c2ccccc2Oc2ncc(Cl)cn2)no1 [Compound 32]
70%

Query pest or weed control at 125 g/ha for N#Cc1cccc(Oc2ncc(Cl)cn2)c1-c1cc(C(F)(F)F)ccn1 [Compound 158]
50%

Supply measured pest or weed control at 125 g/ha of Fc1cccc(Oc2ncc(Br)cn2)c1-c1cc(C(F)F)no1 [Compound 145] in your reply.
90%

====

System: field violet (Viola arvensis)
EXPERIMENTAL_PROTOCOL: Test E pre-/postemergence plant response
Assay type: in vivo
MEASUREMENT_SETUP: post-emergence, 31 g ai/ha, Postemergence, scale 0 to 100, read-out: Plant response rating, Field Violet
Labelling: pest or weed control at 31 g/ha reported below 70% becomes Satisfied; at or above becomes Not satisfied.

Criterion: pest or weed control at 31 g/ha strictly below 70%. Is it met by "FC(F)c1cc(-c2ccccc2Oc2ncc(Br)cn2)no1" ?
Satisfied

Is 70% strictly greater than the compound's reported pest or weed control at 31 g/ha? compound: "FC(F)c1cc(-c2ccccc2Oc2ncc(Cl)cn2)no1"
Satisfied

Say whether its pest or weed control at 31 g/ha is strictly beneath 70%. Entry: "Fc1cccc(Oc2ncc(Br)cn2)c1-c1cc(C(F)F)no1"
Not satisfied

Does the reported pest or weed control at 31 g/ha of "FC(F)c1cc(-c2ccccc2Oc2ncc(Cl)cn2)on1" stay below 70%?
Satisfied

Answer whether the compound "Fc1cccc(Oc2ncc(Cl)cn2)c1-c1cc(C(F)(F)F)on1" has pest or weed control at 31 g/ha strictly less than 70%
Not satisfied

====

System: Italian ryegrass (Lolium multiflorum)
EXPERIMENTAL_PROTOCOL: Test B pre-/postemergence plant response
Format: in vivo
MEASUREMENT_SETUP: 125 g ai/ha, postemergence; 0 to 100 scale, 0 no effect, 100 complete control
From the text: […]
PROPERTY_LABEL: Plant response rating, Ryegrass, Italian
Lab note: jot the number down without any unit.

Provide Italian ryegrass (Lolium multiflorum) Plant response rating, Ryegrass, Italian reading for "Fc1cnc(Oc2cccc(F)c2-c2cnccn2)nc1" .
0

Report Plant response rating, Ryegrass, Italian on Italian ryegrass (Lolium multiflorum) for this entry: "FC(F)(F)c1cc(-c2ccccc2Oc2ncc(Cl)cn2)ncn1"
30

GET Plant response rating, Ryegrass, Italian where system = Italian ryegrass (Lolium multiflorum) and item = "Fc1ccc(Oc2ncc(Cl)cn2)c(-c2cc(C(F)(Cl)Cl)on2)c1"
40

Give Plant response rating, Ryegrass, Italian for this entry on Italian ryegrass (Lolium multiflorum): "Cc1cc(-c2ccccc2Oc2ncc(Cl)cn2)no1"
0

Identify measured Plant response rating, Ryegrass, Italian obtained with Italian ryegrass (Lolium multiflorum) for "FC(F)(F)c1cc(-c2c(Cl)cccc2Oc2ncc(Cl)cn2)no1" .
20

Report value: Plant response rating, Ryegrass, Italian, system: Italian ryegrass (Lolium multiflorum), molecule: "Cn1nc(-c2c(Br)cccc2Oc2ncc(Cl)cn2)cc1C(F)(F)F"
0

Given "Fc1cccc(Oc2ncc(Br)cn2)c1-c1cc(C(F)F)on1" , report its Plant response rating, Ryegrass, Italian on Italian ryegrass (Lolium multiflorum).
80

Recall the reported Plant response rating, Ryegrass, Italian of "Cn1cnc(-c2ccccc2Oc2ncc(Cl)cn2)n1" when tested on Italian ryegrass (Lolium multiflorum).
0

Give Italian ryegrass (Lolium multiflorum) Plant response rating, Ryegrass, Italian for the following molecule: "CC(C)n1ncnc1-c1ccccc1Oc1ncc(Cl)cn1"
0

Give Plant response rating, Ryegrass, Italian only, for "Cc1cnc(Oc2ccccc2-c2cc(C(F)F)no2)nc1" , using Italian ryegrass (Lolium multiflorum) data.
0

====

System: barnyardgrass (Echinochloa crus-galli)
EXPERIMENTAL_PROTOCOL: Test C flooded paddy test plant response
Format: in vivo
MEASUREMENT_SETUP: Echinochloa crus-galli; Flood, 250 g ai/ha; scale of 0 to 100 where 0 is no effect and 100 is complete control; 13 to 15 days; read-out: Barnyardgrass plant response rating
PROPERTY_LABEL: pest or weed control at 250 g/ha (%)
Please state the figure in %; there is no need to write the unit.

Give the value of pest or weed control at 250 g/ha reported for the following: FC(F)(F)c1ccnc(-c2ccccc2Oc2ncc(Cl)cn2)c1 [Compound 25]
0

# return recorded pest or weed control at 250 g/ha for input FC(F)c1cc(-c2ccccc2Oc2ncc(Br)cn2)no1 [Compound 62]
35

Please report pest or weed control at 250 g/ha for the following compound: Fc1cccc(Oc2ncc(Cl)cn2)c1-c1cc(C(F)F)no1 [Compound 144]
98

For the compound Cc1ccc(Oc2ncc(Cl)cn2)c(-c2ccc(C(F)(F)F)nc2)c1 [Compound 22] , report pest or weed control at 250 g/ha.
0

====

Provide the recorded Sedge, Umbrella plant response rating for the entries that follow.
Tested on: small-flower umbrella sedge (Cyperus difformis)
EXPERIMENTAL_PROTOCOL: Test C flooded paddy test plant response
Format: in vivo
MEASUREMENT_SETUP: Flood, 250 g ai/ha; scale of 0 to 100 where 0 is no effect and 100 is complete control; 13 to 15 days

Name the recorded Sedge, Umbrella plant response rating of "Cc1nc(-c2ccccc2Oc2ncc(Cl)cn2)co1" , assay system small-flower umbrella sedge (Cyperus difformis).
0

Give small-flower umbrella sedge (Cyperus difformis) Sedge, Umbrella plant response rating for the following molecule: "Clc1ccc(-c2c(I)cccc2Oc2ncc(Cl)cn2)nc1"
0

State Sedge, Umbrella plant response rating (small-flower umbrella sedge (Cyperus difformis)) of "CC(F)(F)c1cc(-c2ccccc2Oc2ncc(Br)cn2)no1" .
65

Enter recorded Sedge, Umbrella plant response rating with small-flower umbrella sedge (Cyperus difformis) for "N#Cc1cc(-c2ccccc2Oc2ncc(Cl)cn2)no1" here.
0

Look up small-flower umbrella sedge (Cyperus difformis) data: Sedge, Umbrella plant response rating of "Fc1cccc(Oc2ncc(Cl)cn2)c1-c1cc(C2CC2)on1" , then report it.
90

Under small-flower umbrella sedge (Cyperus difformis), report Sedge, Umbrella plant response rating for "Cc1cc(-c2c(F)cccc2Oc2ncc(Br)cn2)on1"
85

Provide the reported Sedge, Umbrella plant response rating (system: small-flower umbrella sedge (Cyperus difformis)) for "Cn1nnnc1-c1ccccc1Oc1ncc(Cl)cn1"
0

Give small-flower umbrella sedge (Cyperus difformis) Sedge, Umbrella plant response rating for the following molecule: "FC(F)c1cc(-c2c(Cl)cccc2Oc2ncc(Br)cn2)on1"
90

Report Sedge, Umbrella plant response rating from small-flower umbrella sedge (Cyperus difformis) testing of "Cn1ncnc1-c1ccccc1Oc1ncc(Cl)cn1"
0

Provide Sedge, Umbrella plant response rating, system small-flower umbrella sedge (Cyperus difformis), entry "FC(F)(F)c1ccc(-c2ccccc2Oc2ncc(Cl)cn2)cc1"
0

Under small-flower umbrella sedge (Cyperus difformis), report Sedge, Umbrella plant response rating for "Cn1nc(-c2c(Br)cccc2Oc2ncc(Cl)cn2)cc1C(F)(F)F"
0

Answer with Sedge, Umbrella plant response rating of "CC(C)(C)c1cc(-c2ccccc2Oc2ncc(Cl)cn2)no1" measured for small-flower umbrella sedge (Cyperus difformis).
0

Provide Sedge, Umbrella plant response rating, tested on small-flower umbrella sedge (Cyperus difformis), for "Cn1ccc(-c2ccccc2Oc2ncc(Cl)cn2)n1" .
0

Name the value of Sedge, Umbrella plant response rating reported for "O=[N+]([O-])c1cc(Cl)cnc1-c1ccccc1Oc1ncc(Cl)cn1" when tested on small-flower umbrella sedge (Cyperus difformis).
0

Fetch value of Sedge, Umbrella plant response rating on small-flower umbrella sedge (Cyperus difformis) for "FC(F)(F)c1cc(-c2ccccc2Oc2ncc(Br)cn2)on1" .
80

Recall the reported Sedge, Umbrella plant response rating of "CCOC(OCC)c1cc(-c2ccccc2Oc2ncc(Cl)cn2)on1" on small-flower umbrella sedge (Cyperus difformis) and write it down.
0

Give reported Sedge, Umbrella plant response rating for "Cc1cc(-c2c(F)cccc2Oc2ncc(Cl)cn2)on1" (small-flower umbrella sedge (Cyperus difformis))
90

Provide Sedge, Umbrella plant response rating, system small-flower umbrella sedge (Cyperus difformis), entry "Fc1cnc(Oc2cccc(F)c2-c2cnccn2)nc1"
0

Give Sedge, Umbrella plant response rating for this entry on small-flower umbrella sedge (Cyperus difformis): "FC(F)(F)c1csc(-c2ccccc2Oc2ncc(I)cn2)n1"
0

Give Sedge, Umbrella plant response rating for "Cn1ccnc1-c1ccccc1Oc1ncc(Br)cn1" tested on small-flower umbrella sedge (Cyperus difformis).
0
